# Tested on: DLD-1
# MEASUREMENT_PROTOCOL: Soft agar growth assay (colony area)
# Format: cell-based
# CONDITIONS: Homo sapiens, 336 h, DLD-1, colon, 14 days, read-out: Lonafarnib IC50
READOUT_KIND: pIC50
Please note pIC50 is a logarithmic value: minus log10 of concentration in mol/L. Answer with that number alone.

Q: Respond only with pIC50 recorded for NC(=O)N1CCC(CC(=O)N2CCC([C@H]3c4ncc(Br)cc4CCc4cc(Cl)cc(Br)c43)CC2)CC1
Ans: 6.49

* * *

# Test system: Colo205
# MEASUREMENT_PROTOCOL: Soft agar growth assay (colony area)
# Format: cell-based
# CONDITIONS: Homo sapiens, COLO 205, 336 h, Colo205, colon, 14 days, read-out: Lonafarnib IC50
READOUT_KIND: pIC50
Schema: pIC50 number; meaning minus log10 of the concentration expressed in molar units.

Q: Report the value of pIC50 obtained on Colo205 for NC(=O)N1CCC(CC(=O)N2CCC([C@H]3c4ncc(Br)cc4CCc4cc(Cl)cc(Br)c43)CC2)CC1 .
Ans: 6.48
